Target: Signal transducer and activator of transcription 6 (Homo sapiens, UniProt P42226)
Assay: Inhibition of STAT6 in human IL4-stimulated FW4 cells
Rule for this label: rule met means IC50 is less than 60 nM; rule not met means IC50 is at least 60 nM.

{"chemical-string": "Cc1cccc(Nc2nc(NCCc3ccc(O)c(Cl)c3)ncc2C(N)=O)c1", "category": "rule met"}
{"chemical-string": "Cc1cccc(Nc2nc(NCCc3ccc(O)c(F)c3)ncc2C(N)=O)c1", "category": "rule not met"}
{"chemical-string": "Cc1cccc(Nc2nc(NCCc3ccc(O)c(Br)c3)ncc2C(N)=O)c1", "category": "rule not met"}

Req: Does the reported IC50 of "NC(=O)c1cnc(NCCc2ccc(O)c(Cl)c2)nc1NCc1ccccc1" stay below 60 nM?
Resp: rule met

Req: Does the reported IC50 of "COc1cc(CCNc2ncc(C(N)=O)c(Nc3cccc(C)c3)n2)ccc1O" stay below 60 nM?
Resp: rule not met

====

Target: Signal transducer and activator of transcription 6 (Homo sapiens) (UniProt P42226)
Sequence (whole entry): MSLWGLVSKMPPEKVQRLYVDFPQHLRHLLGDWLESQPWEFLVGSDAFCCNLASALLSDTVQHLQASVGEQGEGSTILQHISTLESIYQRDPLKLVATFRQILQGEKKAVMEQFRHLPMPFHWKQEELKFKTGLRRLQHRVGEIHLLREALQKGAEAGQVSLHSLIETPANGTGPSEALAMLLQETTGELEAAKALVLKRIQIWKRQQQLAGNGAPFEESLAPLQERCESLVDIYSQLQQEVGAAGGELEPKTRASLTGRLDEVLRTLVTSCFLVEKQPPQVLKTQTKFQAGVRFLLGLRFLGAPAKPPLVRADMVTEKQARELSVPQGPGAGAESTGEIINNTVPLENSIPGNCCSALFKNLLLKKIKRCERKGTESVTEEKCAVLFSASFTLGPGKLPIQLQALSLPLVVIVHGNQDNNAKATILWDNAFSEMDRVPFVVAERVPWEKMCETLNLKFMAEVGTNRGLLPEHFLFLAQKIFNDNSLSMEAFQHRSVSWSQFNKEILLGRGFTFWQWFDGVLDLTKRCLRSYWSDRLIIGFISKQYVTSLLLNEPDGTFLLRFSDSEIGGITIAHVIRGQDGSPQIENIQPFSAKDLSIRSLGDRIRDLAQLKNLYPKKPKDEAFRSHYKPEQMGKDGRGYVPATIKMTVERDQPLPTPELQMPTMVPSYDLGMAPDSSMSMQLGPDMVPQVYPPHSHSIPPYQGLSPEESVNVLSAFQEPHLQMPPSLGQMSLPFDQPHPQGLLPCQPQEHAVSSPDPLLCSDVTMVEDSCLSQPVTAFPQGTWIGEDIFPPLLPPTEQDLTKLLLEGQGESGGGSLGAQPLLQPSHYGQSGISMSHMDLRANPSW
Assay: Inhibition of STAT6 in human IL4-stimulated FW4 cells at 10 uM
property-label: inhibition (%)
Number in %, nothing else.

Look over these answered cases.
{"chemical-string": "Cc1cccc(Nc2nc(NCCc3ccccc3)ncc2C(N)=O)c1", "assayed-target": "Signal transducer and activator of transcription 6 (Homo sapiens) (UniProt P42226)", "property-label": "inhibition", "quantitative-result": 16}
{"chemical-string": "Cc1cccc(Nc2nc(NCCCc3ccc(O)cc3)ncc2C(N)=O)c1", "assayed-target": "Signal transducer and activator of transcription 6 (Homo sapiens) (UniProt P42226)", "property-label": "inhibition", "quantitative-result": 23}
{"chemical-string": "COc1ccc(CCNc2ncc(C(N)=O)c(Nc3cccc(C)c3)n2)cc1", "assayed-target": "Signal transducer and activator of transcription 6 (Homo sapiens) (UniProt P42226)", "property-label": "inhibition", "quantitative-result": 49}
{"chemical-string": "Cc1cccc(Nc2nc(CCCc3ccc(O)cc3)ncc2C(N)=O)c1", "assayed-target": "Signal transducer and activator of transcription 6 (Homo sapiens) (UniProt P42226)", "property-label": "inhibition", "quantitative-result": 32}
{"chemical-string": "Cc1cccc(Nc2nc(NCc3ccc(O)cc3)ncc2C(N)=O)c1", "assayed-target": "Signal transducer and activator of transcription 6 (Homo sapiens) (UniProt P42226)", "property-label": "inhibition", "quantitative-result": 19}

Please examine the following record next.
Req: Fill in inhibition for record "Cc1cccc(Nc2nc(NCCc3ccccc3O)ncc2C(N)=O)c1"
Resp: 15

====

Tested on: T-cell
Test: Effect on differentiation of C57BL/6 mouse T cells assessed as inhibition of IL4 production
Type: functional, cell-based
Settings: C57BL/6, T-cell
property-label: IC50 (nM)
Number in nM, nothing else.

{"chemical-string": "Cc1cccc(Nc2nc(NCCc3ccc(O)cc3)ncc2C(N)=O)c1", "quantitative-result": 14}

Please examine the following record next.
Req: Fill in IC50 for record "NC(=O)c1cnc(NCCc2ccc(O)c(Cl)c2)nc1NCc1ccccc1"
Resp: 2.3

====

Recorded pIC50 values for a group of compounds are listed next.
Target: Signal transducer and activator of transcription 6 (Homo sapiens)
Assay: Inhibition of STAT6 in human IL4-stimulated FW4 cells
Formally, pIC50 is defined as -log10 of the concentration c, with c in mol/L.

Look over these answered cases.
{"chemical-string": "Cc1cccc(Nc2nc(NCCc3ccc(O)cc3)ncc2C(=O)N(C)C)c1", "assayed-target": "Signal transducer and activator of transcription 6 (Homo sapiens)", "pIC50": 5.09}
{"chemical-string": "NC(=O)c1cnc(NCCc2ccc(O)cc2)nc1NCc1ccccc1", "assayed-target": "Signal transducer and activator of transcription 6 (Homo sapiens)", "pIC50": 7.06}
{"chemical-string": "Cc1cccc(Nc2nc(NCCc3ccc(O)c(C)c3)ncc2C(N)=O)c1", "assayed-target": "Signal transducer and activator of transcription 6 (Homo sapiens)", "pIC50": 6.89}
{"chemical-string": "Cc1cccc(Nc2nc(NCCc3ccc(O)cc3)ncc2C(=O)NC(C)C)c1", "assayed-target": "Signal transducer and activator of transcription 6 (Homo sapiens)", "pIC50": 5.96}
{"chemical-string": "NC(=O)c1cnc(NCCc2ccc(O)cc2)nc1Nc1ccccc1", "assayed-target": "Signal transducer and activator of transcription 6 (Homo sapiens)", "pIC50": 6.39}

Req: Param request: pIC50 | system Signal transducer and activator of transcription 6 (Homo sapiens) | item "CNC(=O)c1cnc(NCCc2ccc(O)cc2)nc1Nc1cccc(C)c1"
Resp: 6.77

Req: Param request: pIC50 | system Signal transducer and activator of transcription 6 (Homo sapiens) | item "Cc1cccc(Nc2nc(NCCc3cccc(O)c3)ncc2C(N)=O)c1"
Resp: 5.52

Req: Param request: pIC50 | system Signal transducer and activator of transcription 6 (Homo sapiens) | item "NC(=O)c1cnc(NCCc2ccc(O)cc2)nc1NC1CCCCC1"
Resp: 7.00

Req: Param request: pIC50 | system Signal transducer and activator of transcription 6 (Homo sapiens) | item "Cc1cccc(Nc2nc(NCCc3ccc(O)cc3)ncc2C(N)=O)c1"
Resp: 6.72

Req: Param request: pIC50 | system Signal transducer and activator of transcription 6 (Homo sapiens) | item "CNC(=O)c1cnc(NCCc2ccc(O)c(Cl)c2)nc1NCc1ccccc1"
Resp: 7.52

Req: Param request: pIC50 | system Signal transducer and activator of transcription 6 (Homo sapiens) | item "CCNC(=O)c1cnc(NCCc2ccc(O)cc2)nc1Nc1cccc(C)c1"
Resp: 6.42
